# Test system: Proteus vulgaris
# protocol_details: Antibacterial activity against Proteus vulgaris MTCC 1771 after 24 hr by agar disk diffusion test; note: test concentration or dose not given here
# Type: functional
measurement_kind: inhibition zone (IZ) (mm)
Report only the number, with the unit mm understood.

compound | measurement_kind | observed_measurement
CCN1CCN(c2nc(Oc3cccc4cccnc34)nc(Sc3nnc(-c4cc5ccccc5oc4=O)o3)n2)CC1 | inhibition zone (IZ) | 12
CC(C)N1CCN(c2nc(Oc3cccc4cccnc34)nc(Sc3nnc(-c4cc5ccccc5oc4=O)o3)n2)CC1 | inhibition zone (IZ) | 15
O=c1oc2ccccc2cc1-c1nnc(Sc2nc(Oc3cccc4cccnc34)nc(N3CCN(c4cccc(C(F)(F)F)c4)CC3)n2)o1 | inhibition zone (IZ) | 23
O=c1oc2ccccc2cc1-c1nnc(Sc2nc(Oc3cccc4cccnc34)nc(N3CCN(c4ccccc4F)CC3)n2)o1 | inhibition zone (IZ) | 22
CC1CC(C)CN(c2nc(Oc3cccc4cccnc34)nc(Sc3nnc(-c4cc5ccccc5oc4=O)o3)n2)C1 (stereo not drawn) | inhibition zone (IZ) | 19
O=c1oc2ccccc2cc1-c1nnc(Sc2nc(Oc3cccc4cccnc34)nc(N3CCN(c4ccccn4)CC3)n2)o1 | inhibition zone (IZ) | 14

Next compound, inhibition zone (IZ) to be filled in.
Using the record for O=c1oc2ccccc2cc1-c1nnc(Sc2nc(Oc3cccc4cccnc34)nc(N3CCN(c4cccc(Cl)c4)CC3)n2)o1 , report its inhibition zone (IZ).
19
